B1: TPR 5TU (parent)
chain: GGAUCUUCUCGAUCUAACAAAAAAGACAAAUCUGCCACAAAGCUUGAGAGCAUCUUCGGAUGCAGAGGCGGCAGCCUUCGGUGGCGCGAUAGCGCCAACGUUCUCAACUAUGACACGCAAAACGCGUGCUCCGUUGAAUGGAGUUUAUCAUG

Variants of: B1
Assay: polymerase ribozyme fitness, log enrichment relative to wild type (log ratio); higher = more active; in vitro selection for triplet polymerase activity
Variants at the floor of the assay were thinned out.
Each entry below carries its recorded polymerase ribozyme fitness (log ratio).
Note: the reply should be a number with no unit written.

Solved cases (3 shown):
Requested field: polymerase ribozyme fitness (log ratio). Item: A97G G133A
-3.61

Requested field: polymerase ribozyme fitness (log ratio). Item: A97U U134G
-2.5

Requested field: polymerase ribozyme fitness (log ratio). Item: C5A C85U A97U G143A
-1.87

Others:
Requested field: polymerase ribozyme fitness (log ratio). Item: G81A A120U G128A
-3.29

Requested field: polymerase ribozyme fitness (log ratio). Item: G58C A122U A142G G143A
-4.05

Requested field: polymerase ribozyme fitness (log ratio). Item: A49G G50A G84A A97G
-3.11

Requested field: polymerase ribozyme fitness (log ratio). Item: C51A C118U G152A
-3.06
